- Tested on: PC-3
- test: NCI tumour cell line growth inhibition, 48 h
Activity calls are given as the source filed them. Rule as the data show it: active = GI50 up to about 1.1 µM and inactive = higher.
Your answer must be one of the following: active, inactive

[[record]]
compound = "NCCCCNCCCN1CC1"
target = "PC-3"
class = "inactive"


Would you mind telling me which call this test gave Cc1ccc(N/N=C/C2=CC(C)(C)C(C#N)(C#N)C(O)=C2C#N)cc1 ?
inactive

Lookup CC(C)(C)c1nc2c(o1)C(=O)c1ccccc1C2=O
active

###

- System: OVCAR-5
- test: NCI tumour cell line growth inhibition, 48 h
Activity calls are given as the source filed them. Rule as the data show it: active = GI50 up to about 1.1 µM and inactive = higher.
Please reply with one of these outcomes: active, inactive

// below: answered molecules
[[record]]
molecule = "CC1CC(C)CC(C)C(O)/C(C#N)=C/C=C/CC(C2CCCC2C(=O)O)OC(=O)CC(O)C(C)C1 (stereo not drawn)"
class = "active"

[[record]]
molecule = "Cc1ccc(S(=O)(=O)NC(=O)NCC(=O)NCC(=O)O)cc1"
class = "inactive"


Field: outcome | Entry: NCCCCNC1(c2cc3ccccc3s2)CCCCC1
inactive

###

- Test system: OVCAR-3
- test: NCI tumour cell line growth inhibition, 48 h
Active and inactive are the calls of the source. Rule as the data show it: active = GI50 up to about 1.1 µM and inactive = higher.
For each record, write down the corresponding GI50.

Examples from the recorded data:
[[record]]
compound = "COc1ccc(CC2NCCc3cc(OC)c(OC)cc32)cc1Br (stereo not given)"
result = "76.6 µM (inactive)"

[[record]]
compound = "Cc1ccccc1C(=O)C1CCCCC1O (stereo not given)"
result = "> 100 µM (inactive)"


Provide GI50 for all items below, preserving their order.
1. CCCCCC1CC=CC(NC(=O)OCc2ccccc2)C1/C=C/CCCC1OCCO1 (stereo not given)
2. CC(C)C(=O)/C=C/S/C=C/C(=O)C(C)C
3. COC(=O)C1CCC2(C)[C@H](CCC3O[C@]32C)[C@@]1(C)CC(=O)c1ccoc1 (stereo not given in full)
4. C[Si](C)(C)C#CCO[Si](C)(C)C
5. CCCCCn1cnc2c1S(=O)(=O)N(C)C(NC(=O)c1ccccc1)=N2

1: 38.5 µM (inactive); 2: 3.62 µM (inactive); 3: > 100 µM (inactive); 4: > 94.2 µM (inactive); 5: > 100 µM (inactive)

###

- Tested on: HOP-92
- test: NCI tumour cell line growth inhibition, 48 h
Structures can show the parent of a compound that is named as a salt. Calls of active or inactive are those of the source. Cut-off read from the data, not from the text of the source: active = GI50 up to about 1.1 µM and inactive = higher.
API: response.call in active, inactive

Observe how each entry below is paired with its result.
[[record]]
compound = "COc1cc(/C=C(\\C)[N+](=O)[O-])cc(OC)c1"
class = "inactive"

[[record]]
compound = "CCOC(OC1=C(C#N)CCC1)C(CC)[Se]c1ccccc1 (configuration not stated)"
class = "inactive"

[[record]]
compound = "CN(C)c1ccc(/C=C(\\NC(=O)c2ccccc2)C(=O)NC(CCC(=O)O)C(=O)O)cc1 (configuration not stated)"
class = "inactive"

[[record]]
compound = "C[C@@H](CN1CC(=O)NC(=O)C1)N1CC(=O)NC(=O)C1 [DEXRAZOXANE]"
class = "inactive"

[[record]]
compound = "O=C(O)/C=C/c1ccc(Oc2ccccc2C(=O)O)o1"
class = "inactive"

[[record]]
compound = "COC(=O)c1cccn1C(=O)n1cccc1"
class = "inactive"

[[record]]
compound = "C[n+]1c2ccccc2n2c3ccccc3c(NCc3ccco3)c(C#N)c21"
class = "inactive"

[[record]]
compound = "Cc1cc(C(=O)CSC(=S)SC(C)(C)C)ccc1Cl"
class = "inactive"


Given CC(C)C[C@H](NC(=O)[C@H](Cc1ccccc1)NC(=O)c1cnccn1)B(O)O [BORTEZOMIB] , state the outcome it received in this test.
active

Another compound to look at: COC(=O)C(C(=O)C(=O)Nc1cccc(O)c1)c1nc2ccc(Cl)cc2nc1O (configuration not stated)
inactive

Also need C=C1C[C@@H]2CC[C@@]34C[C@H]5O[C@H]6[C@@H](O3)[C@H]3O[C@H](CC[C@@H]3O[C@H]6[C@H]5O4)CC(=O)C[C@@H]3[C@@H](OC)[C@@H](C[C@H](O)CN)O[C@H]3C[C@H]3O[C@@H](CC[C@@H]1O2)C[C@@H](C)C3=C [ERIBULIN MESYLATE] , thanks.
active

What about CCN(CC)c1ccc(/C=C/C(=O)c2cc(C(C)(C)C)c(O)c(C(C)(C)C)c2)cc1 ?
inactive

Lookup OCC1C2C=CC(O2)[C@H]1CO (some centres not stated)
inactive

Could you do the same for COc1cc2cc3c4c(cc(OC)c(OC)c4c2cc1OC)CCN3 , please?
inactive

Can you check CC(=O)C1CCN(c2ccccc2)C1 (configuration not stated) next?
inactive

Now try COC(=O)N1CC(=O)C(C(=O)NC23CC4CC(CC(C4)C2)C3)C1 (configuration not stated) .
inactive

What do you get for COc1ccc2cc(-c3nc(N)nc(N4N=C(C)CC4(C)C)n3)c(=N)oc2c1 ?
inactive
